Attribute: pIC50
# Tested on: 8701-BC breast cancer cells
# Procedure Details: Cell proliferation assay (MTT), 8701-BC
# Assay type: cell-based, human
# Measurement Setup: exponentially growing 8701-BC cells, compounds 0-100 μM, 72 hours, means ± SEM, NA = not active at 100 μM concentration
Value format note: pIC50 is -log10 of concentration (mol/L); just state the number.

Illustrative cases are given below, each with its answer.
C(=Cn1ncc2c(NCc3ccccc3)ncnc21)c1ccccc1 [Compound 4i] ... 4.19
CCSc1nc(N2CCOCC2)c2cnn(CC(Cl)c3ccccc3)c2n1 (centres unmarked) [Compound 2b] ... 4.10
OC(Cn1ncc2c(NCCc3ccccc3)ncnc21)c1ccccc1 (centres unmarked) [Compound 3f] ... 4.34
C(=Cn1ncc2c(N3CCOCC3)ncnc21)c1ccccc1 [Compound 4b] ... 4.23
CCCCNc1ncnc2c1cnn2C=Cc1ccccc1 [Compound 4c] ... 4.09

Form: item CCOCCNc1ncnc2c1cnn2C=Cc1ccccc1 [Compound 4f] ; test system 8701-BC breast cancer cells; pIC50: 4.36

The reported 8701-BC breast cancer cells pIC50 of C(=Cn1ncc2c(N3CCCCCC3)ncnc21)c1ccccc1 [Compound 4d] is 4.03

Record CSc1nc(N2CCCCC2)c2cnn(CC(Cl)c3ccccc3)c2n1 (centres unmarked) [Compound 1a] / 8701-BC breast cancer cells, pIC50 recorded as 4.17

The reported 8701-BC breast cancer cells pIC50 of CCSc1nc(NCc2ccccc2)c2cnn(CC(Cl)c3ccccc3)c2n1 (centres unmarked) [Compound 2f] is 4.37

Readout pIC50 for CSc1nc(N2CCCC2)c2cnn(CC(Cl)c3ccccc3)c2n1 (centres unmarked) [Compound 1i] , test system 8701-BC breast cancer cells, was 4.25

Summary line: CCCNc1ncnc2c1cnn2C=Cc1ccccc1 [Compound 4e] , 8701-BC breast cancer cells, reported pIC50 = 4.24

###

# Test system: A431 human epidermoid carcinoma cells
# Procedure Details: Cell proliferation assay (MTT), A431
# Assay type: cell-based
# Measurement Setup: compounds 0-100 μM, 72 hours, means ± SEM, NA = not active at 100 μM concentration
pIC50 listing for selected compounds.
FYI, pIC50 means -log10 of a concentration in mol per litre.

CCCCNc1nc(SC)nc2c1cnn2CC(Cl)c1ccccc1 (stereo not shown) [Compound 1d] ... 4.56

Form: compound = CSc1nc(N2CCOCC2)c2cnn(CC(Cl)c3ccccc3)c2n1 (stereo not shown) [Compound 1b] ; pIC50 = 4.57

Per the record, C(=Cn1ncc2c(NCc3ccccc3)ncnc21)c1ccccc1 [Compound 4i] has pIC50 of 4.93

The value of pIC50 measured for the compound C(=Cn1ncc2c(N3CCCCC3)ncnc21)c1ccccc1 [Compound 4a] turned out to be 4.16

Briefly, pIC50 measured for OC(Cn1ncc2c(NCCc3ccccc3)ncnc21)c1ccccc1 (stereo not shown) [Compound 3f] : 4.10

Note to self: pIC50 recorded for CCCNc1nc(SC)nc2c1cnn2CC(Cl)c1ccccc1 (stereo not shown) [Compound 1g] was 4.49

###

Item-by-item account of IC50
# Test system: A431 human epidermoid carcinoma cells
# Procedure Details: Cell proliferation assay (MTT), A431
# Assay type: cell-based
# Measurement Setup: compounds 0-100 μM, 72 hours, means ± SEM, NA = not active at 100 μM concentration
Answer with the number, then the unit.

Below, 3 compounds whose answers are already recorded.
CSc1nc(NCc2ccccc2)c2cnn(C=Cc3ccccc3)c2n1 ... 39.8 µM
CCCCNc1ncnc2c1cnn2C=Cc1ccccc1 ... 91.5 µM
CCCCNc1ncnc2c1cnn2CC(Br)c1ccccc1 (stereo not shown) ... 33.6 µM

Then there is this compound:
IC50 of CCSc1nc(N2CCOCC2)c2cnn(C=Cc3ccccc3)c2n1 , assay on A431 human epidermoid carcinoma cells, is 49.8 µM
